test target: muscarinic receptors (Oxo-M binding receptor, forebrain synapse membranes)
assay procedure: [3H]-oxotremorine-M ([3H]-Oxo-M) affinity screening test
run parameters: inhibition of 50% of specific binding of [3H]-Oxo-M (5 nM) to the receptor; rat brain membranes
Source text: [^3H]-oxotremorine-M ([^3H]-Oxo-M) Affinity Screening Test The experimental principle was the same as [^3H]-NMS affinity screening test. […] The functions of the compounds may be determined by carrying out both of [^3H]-NMS and [^3H]-Oxo-M (oxotremorine) affinity screening tests to measure their respective IC50 values and calculating ratios (NMS/Oxo-M) of the measured IC50 values. […]
pIC50: −log10 of the molar value.
Reported pIC50 values follow for various molecules

- molecule: "CN1CCC=C(C2=NOC(N3CCCC3=O)C2)C1 (stereo not shown) [Example 15]"
  pIC50: 6.66
- molecule: "CN1CCC=C(C2=NOC(CN3CCCC3=O)C2)C1 (stereo not shown) [Example 18]"
  pIC50: 7.52
- molecule: "COC(=O)C1=CCCN(C)C1 [Arecoline, reference compound]"
  pIC50: 6.85
- molecule: "CN1CCC=C(c2cc(CN3CCCC3=O)on2)C1 [Example 23]"
  pIC50: 6.43
